Target: Dipeptidyl peptidase 4 (Homo sapiens)
Assay: Inhibition of DPP4 at 500 ug/ml after 30 mins by spectrophotometry
Assignment: determine reported inhibition for the given molecules.
Note to self: number, then unit, no commentary.

Name the recorded inhibition for CCCCCCCCC1=NC(=O)N=C1CCCCCCCC(=O)OCCO[N+](=O)[O-] .
-6.22%

Name the recorded inhibition for CCCCCCCCc1nc2ccc([N+](=O)[O-])cc2nc1CCCCCCCC(=O)O .
64%

Name the recorded inhibition for CCCCCCCCC1=NC(=O)CC(=O)N=C1CCCCCCCC(=O)O .
12.3%

Name the recorded inhibition for CCCCCCCCc1nc2ccccc2nc1CCCCCCCC(=O)O .
73.6%

Name the recorded inhibition for CCCCCCCCc1nonc1CCCCCCCC(=O)O .
2.2%

Name the recorded inhibition for CCCCCCCCc1nc2ccc(C)cc2nc1CCCCCCCC(=O)O .
88.1%

Name the recorded inhibition for CCCCCCCCc1nc2ccc(Cl)cc2nc1CCCCCCCC(=O)O .
45.5%

Name the recorded inhibition for CCCCCCCCC1=NC(=S)N=C1CCCCCCCC(=O)OCCO[N+](=O)[O-] .
23.3%

Name the recorded inhibition for CCCCCCCCc1nc(=S)[nH]nc1CCCCCCCC(=O)O .
58.3%
